Provide the reported percentage of control metabolism, 7-HFC glucuronidation of each item.
Test system: UGT enzymes of human liver microsomes
Construct: percentage of control metabolism, 7-HFC glucuronidation; percentage of control metabolism, 7-HFC glucuronidation
Experiment: Inhibition of 7-HFC glucuronidation in human liver microsomes
Format: biochemical
Details: inhibitor 500 μM

# compound, result
rows = [
    ("O=C(O[C@@H]1Cc2c(O)cc(O)cc2O[C@@H]1c1ccc(O)c(O)c1)c1cc(O)c(O)c(O)c1 [Epicatechin gallate]", "10 (1) %"),
    ("CC1=C(/C=C/C(C)=C/C=C/C(C)=C/CO)C(C)(C)CCC1 [Retinol]", "25 (1) %"),
    ("CC/C(=C(/CC)c1ccc(O)cc1)c1ccc(O)cc1 [Diethylstilbestrol, reference compound]", "0.1 (0) %"),
    ("CCCCCCCCC(=O)NCc1ccc(O)c(OC)c1 [N-Vanillylnonanamide]", "48 (1) %"),
    ("C#C[C@]1(O)CC[C@H]2[C@@H]3CCc4cc(O)ccc4[C@H]3CC[C@@]21C [17-α-Ethinylestradiol, 17-α-ethinylestradiol, reference compound]", "72 (1) %"),
    ("O=c1c(O)c(-c2ccc(O)c(O)c2)oc2cc(O)cc(O)c12 [Quercetin]", "52 (1) %"),
]

Below is a list of compounds. For each, state its recorded percentage of control metabolism, 7-HFC glucuronidation.
1. CCCCCCCCOC(=O)c1cc(O)c(O)c(O)c1 [Octyl gallate]
2. COc1cc(CNC(=O)CCCC/C=C/C(C)C)ccc1O [Capsaicin]
3. COc1cc(CNC(=O)CCCCCCC(C)C)ccc1O [Dihydrocapsaicin]
4. CCCCCCCCCCCCOC(=O)c1cc(O)c(O)c(O)c1 [Lauryl gallate]
5. CCCCC/C=C\C/C=C\CCCCCCCC(=O)O [Linoleic acid]

Completion:
0.1 (0.1) %
39 (0) %
42 (2) %
18 (6) %
33 (1) %

---

Give % of control metabolism, raloxifene G2 for every item shown.
Tested on: UGT enzymes of human liver microsomes
Test: Inhibition of raloxifene glucuronidation (G1, G2) in human liver microsomes
Type: biochemical
Settings: liver lot 083000; inhibitor 50 μM

# molecule, readout-type, result
data = [
    ("O=C(O[C@@H]1Cc2c(O)cc(O)cc2O[C@@H]1c1ccc(O)c(O)c1)c1cc(O)c(O)c(O)c1 [Epicatechin gallate]", "% of control metabolism, raloxifene G2", "43 (4) %"),
    ("O=C(O[C@@H]1Cc2c(O)cc(O)cc2O[C@H]1c1cc(O)c(O)c(O)c1)c1cc(O)c(O)c(O)c1 [Gallocatechin gallate]", "% of control metabolism, raloxifene G2", "47 (2) %"),
    ("O=c1c(O)c(-c2ccc(O)c(O)c2)oc2cc(O)cc(O)c12", "% of control metabolism, raloxifene G2", "15 (1) %"),
    ("O=C(O)c1cc(-c2ccc(F)cc2F)ccc1O [Diflunisal, reference compound]", "% of control metabolism, raloxifene G2", "45 (2) %"),
    ("CCCCCCCCOC(=O)c1cc(O)c(O)c(O)c1 [Octyl gallate]", "% of control metabolism, raloxifene G2", "46 (3) %"),
]

Next molecule, % of control metabolism, raloxifene G2 to be filled in.
Prompt: GET /values?readout=% of control metabolism, raloxifene G2&item= O=C(O[C@@H]1Cc2c(O)cc(O)cc2O[C@@H]1c1cc(O)c(O)c(O)c1)c1cc(O)c(O)c(O)c1 [Epigallocatechin gallate]
Completion: 50 (3) %
